Numbers sourced from ChEMBL document CHEMBL5614415.

Each item that follows carries a reported MIC50.
- System: Mycobacterium tuberculosis
- PROCEDURE SUMMARY: Antimicrobial activity against Mycobacterium tuberculosis H37Rv ATCC 27294 assessed as inhibition of bacterial growth incubated for […] by broth dilution method
- Format: functional
- TEST PARAMETERS: time lower 18 hrs
MEASURED ENDPOINT: MIC50

{"COMPOUND": "c1cc2cc(-c3ccc(-c4cc5ccc(C6=NCCN6)cc5[nH]4)cc3)[nH]c2cc1C1=NCCN1", "RESULT": "0.04 µg/mL"}
{"COMPOUND": "C(=C\\c1cc2ccc(C3=NCCN3)cc2[nH]1)/c1cc2ccc(C3=NCCN3)cc2[nH]1", "RESULT": "0.03 µg/mL"}
{"COMPOUND": "c1cc2cc(-c3ccc4cc(C5=NCCN5)[nH]c4c3)[nH]c2cc1C1=NCCN1", "RESULT": "0.08 µg/mL"}
{"COMPOUND": "c1cc2cc(-c3ccc4cc(-c5ccc6oc(C7=NCCN7)cc6c5)[nH]c4c3)[nH]c2cc1C1=NCCN1", "RESULT": "0.02 µg/mL"}

----------
Each item that follows carries a reported MIC50.
- System: Mycobacterium tuberculosis
- PROCEDURE SUMMARY: Antimycobacterial activity against Mycobacterium tuberculosis
- Type: functional

{"MOLECULE": "CN[C@@H]1[C@H](O)[C@H](NC)[C@H]2O[C@@]3(O)[C@H](NC(=O)Cc4ccc(F)cn4)C[C@@H](C)C[C@H]3O[C@@H]2[C@H]1O", "MIC50 [µg/mL]": 0.8}
{"MOLECULE": "CC(C)=CCC/C(C)=C/CNCCNC1C2CC3CC(C2)CC1C3 (centres undefined)", "MIC50 [µg/mL]": 0.12}
{"MOLECULE": "CN[C@@H]1[C@H](O)[C@H](NC)[C@H]2O[C@@]3(O)[C@H](NC(=O)Cc4ccc(Cl)cn4)C[C@@H](C)C[C@H]3O[C@@H]2[C@H]1O", "MIC50 [µg/mL]": 1.6}
{"MOLECULE": "O=C1CCc2c(OC[C@]3(O)CCN(c4c(F)cc(Cl)cc4F)C[C@H]3O)ccc(F)c2N1 [QUABODEPISTAT]", "MIC50 [µg/mL]": 0.00024}

----------
Test system Cytochrome P450 2C9 (Homo sapiens, UniProt P11712), IC50 listed for each of the compounds.

{"COMPOUND": "CCOC(=O)NC(=O)c1cc(F)sc1NC(=O)c1nc2ccccc2s1", "ASSAYED SYSTEM": "Cytochrome P450 2C9 (Homo sapiens, UniProt P11712)", "CENSORING QUALIFIER": "=", "IC50 / nM": 150}
{"COMPOUND": "CCOC(=O)NC(=O)c1ccsc1NC(=O)c1ccn2cnnc2c1", "ASSAYED SYSTEM": "Cytochrome P450 2C9 (Homo sapiens, UniProt P11712)", "CENSORING QUALIFIER": ">", "IC50 / nM": 10000}
{"COMPOUND": "CCOC(=O)NC(=O)c1ccsc1NC(=O)c1nc2cccnc2s1", "ASSAYED SYSTEM": "Cytochrome P450 2C9 (Homo sapiens, UniProt P11712)", "CENSORING QUALIFIER": "=", "IC50 / nM": 130}
